Ref: patent US5411983A

Target: UniProt:G1TEI7
Sequence (G1TEI7 1-342): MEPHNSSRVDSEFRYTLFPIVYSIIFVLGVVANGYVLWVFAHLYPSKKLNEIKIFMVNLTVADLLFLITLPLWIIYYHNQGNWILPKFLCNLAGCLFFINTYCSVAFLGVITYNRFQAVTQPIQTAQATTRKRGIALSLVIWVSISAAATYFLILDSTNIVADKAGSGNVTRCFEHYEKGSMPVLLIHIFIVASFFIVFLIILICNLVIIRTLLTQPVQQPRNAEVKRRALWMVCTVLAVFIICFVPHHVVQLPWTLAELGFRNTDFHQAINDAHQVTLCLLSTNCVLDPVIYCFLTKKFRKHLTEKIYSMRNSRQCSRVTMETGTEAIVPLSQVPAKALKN
Test: Inhibition of PAF induced platelet aggregation in washed rabbit platelets
Format: cell-based
Set-up: In some experiments, washed platelets were used instead of PRP; endogenous in cells; host or cells: washed rabbit platelets
Settings: challenge concentration of PAF 5E9M [sic]
Experimental: Platelet activating factor (PAF) compounds were evaluated as PAF receptor antagonists in vitro by measuring inhibition of PAF induced platelet aggregation. Platelet aggregation was measured by a modification of the method of A. Wissner, et. al., J. Med. Chem., 27, 1174, 1984. […] Dilutions (1:3000) Of PRP in Isoton diluent were made and platelet counts were determined on a Coulter Thrombocounter which was standardized with platelet reference standards (Interscience Platelet Control, Portland, Oreg.). […]
Listed below: log10(IC50) values for each entry.
Hey, these are logged values: log10 of IC50, nM being the unit before logging.

{"compound": "CCCCCCCCCCCCCCCCOCC(COP(=O)([O-])Oc1cccc(C[n+]2ccsc2)c1)OC (centres unmarked)", "observed-measurement": 1.23}
{"compound": "CCCCCCCCCCCCCCc1cccc(OCC(COP(=O)([O-])Oc2cccc(C[n+]3ccsc3)c2)OC)c1 (centres unmarked)", "observed-measurement": 0.98}
{"compound": "CCCCCCCCCCCCCCCCCCNC(=O)OCC(COP(=O)([O-])Oc1ccccc1C[n+]1ccsc1)OC (centres unmarked)", "observed-measurement": 1.72}
{"compound": "CCCCCCCCCCCCCCCCOCC(COP(=O)([O-])Oc1cccc(C[n+]2csc(C)c2)c1)OC (centres unmarked)", "observed-measurement": 1.51}

API: the following record is the query input.
Kindly note the recorded log10(IC50) for CCCCCCCCCCCCCCCCOCC(COCc1cccc(Cn2cc[n+](C)c2)c1)OC (centres unmarked) , which is 3.18
